Data provenance: patent US8318943B1

experimental.details: physchem
experimental.conditions: 1:1 EtOH/H2O (v/v), aqueous with cosolvent or surfactant or cyclodextrin, thermodynamic from solid
# solubility annotations
reported.endpoint: solubility

{"compound": "OC[C@@H](O)[C@@H](O)[C@H](O)[C@@H](O)CO", "meas.value": "~160 mg/mL"}
{"compound": "Cc1c(OCC(F)(F)F)ccnc1C[S@@+]([O-])c1nc2ccccc2[nH]1 [SP134-FD-P1, dexlansoprazole sesquihydrate, reference compound]", "meas.value": "~30 mg/mL"}

###

experimental.details: physchem
experimental.conditions: DMSO, organic solvent or mixture, thermodynamic from solid
solubility values for the compounds below.
reported.endpoint: solubility

{"compound": "OC[C@@H](O)[C@@H](O)[C@H](O)[C@@H](O)CO", "reported.endpoint": "solubility", "meas.value": "> 200 mg/mL"}
{"compound": "Cc1c(OCC(F)(F)F)ccnc1C[S@@+]([O-])c1nc2ccccc2[nH]1 [SP134-FD-P1, dexlansoprazole sesquihydrate, reference compound]", "reported.endpoint": "solubility", "meas.value": "> 200 mg/mL"}

###

experimental.details: Approximate solubility tests in selected solvents
Type: physicochemical
experimental.conditions: ethanol, organic solvent or mixture; read-out: Solubility [S, mg/ml]
reported.endpoint: solubility

{"compound": "Cc1c(OCC(F)(F)F)ccnc1C[S@@+]([O-])c1nc2ccccc2[nH]1 [SP134-FD-P1, dexlansoprazole sesquihydrate, reference compound]", "meas.value": "~228 mg/mL"}

###

experimental.details: physchem
experimental.conditions: 1:1 EtOAc/EtOH (v/v), 60 °C, organic solvent or mixture, thermodynamic from solid
reported.endpoint: solubility (µg/mL)

{"compound": "OC[C@@H](O)[C@@H](O)[C@H](O)[C@@H](O)CO", "unit.abbreviation": "µg/mL", "meas.value": 3000}

###

Overview of reported solubility across a group of compounds:
experimental.details: physchem
experimental.conditions: 2:1 MeOH/borax buffer, pH 9, aqueous with cosolvent or surfactant or cyclodextrin, thermodynamic from solid
reported.endpoint: solubility

{"compound": "OC[C@@H](O)[C@@H](O)[C@H](O)[C@@H](O)CO", "meas.value": "> 250 mg/mL"}
{"compound": "Cc1c(OCC(F)(F)F)ccnc1C[S@@+]([O-])c1nc2ccccc2[nH]1 [SP134-FD-P1, dexlansoprazole sesquihydrate, reference compound]", "meas.value": "90 to 190 mg/mL"}

###

experimental.details: physchem
experimental.conditions: 1:3 DMSO/EtOH (v/v), 60 °C, organic solvent or mixture, thermodynamic from solid

{"compound": "OC[C@@H](O)[C@@H](O)[C@H](O)[C@@H](O)CO", "solubility": "54 to 108 mg/mL"}

###

experimental.details: physchem
experimental.conditions: EtOAc, organic solvent or mixture, thermodynamic from solid

{"molecule": "Cc1c(OCC(F)(F)F)ccnc1C[S@@+]([O-])c1nc2ccccc2[nH]1 [SP134-FD-P1, dexlansoprazole sesquihydrate, reference compound]", "solubility": "> 20 mg/mL"}
{"molecule": "OC[C@@H](O)[C@@H](O)[C@H](O)[C@@H](O)CO [Sorbitol, D-sorbitol]", "solubility": "< 1 mg/mL"}

###

experimental.details: Approximate solubility tests in selected solvents
Type: physicochemical
experimental.conditions: MEK, organic solvent or mixture; read-out: Solubility [S, mg/ml]

{"compound": "Cc1c(OCC(F)(F)F)ccnc1C[S@@+]([O-])c1nc2ccccc2[nH]1 [SP134-FD-P1, dexlansoprazole sesquihydrate, reference compound]", "solubility": "~226 mg/mL"}
